All figures here come from patent US10308615B2.

Molecular target: human vanin-1 (Homo sapiens (Human))
Assay: Human Vanin-1 Enzyme Assay 1
Assay type: biochemical
Conditions: 25 pM human vanin-1, 50 uM pantetheine 7-amino-4-trifluoromethylcoumarin, 30 min preincubation, 60 min
# maps each entry to its IC50
Just the number please, in nM, no unit attached.

Check out these entries, answers already filled in.
>>> measurement("O=C(c1cnc(NC2(c3ccccc3)CC2)nc1)c1cccc(C(F)(F)F)c1 [Example 66]")
21.3
>>> measurement("N#Cc1cccc(C(=O)c2cnc(NCc3cnc(N)nc3)nc2)c1 [Example 4]")
22.4
>>> measurement("NC(=O)c1cccc(C(=O)c2cnc(NCc3cncnc3)nc2)c1 [Example 136]")
187
>>> measurement("CC(Nc1ccc(C(=O)c2cccc(C#N)c2)cn1)c1cncnc1 (stereo not drawn) [Example 144]")
12.5
>>> measurement("O=C(c1ccccc1)c1cnc(NC2(c3ccccc3)CC2)nc1 [Example 111]")
367
>>> measurement("N#Cc1cccc(C(=O)c2cnc(NCc3ccc(F)cc3)nc2)c1 [Example 31]")
102
>>> measurement("CS(=O)(=O)c1cccc(C(=O)c2cnc(NC3(c4cncnc4)CC3)nc2)c1 [Example 17]")
0.8

Now examine the next entry.
Task item: Look up IC50: NC(=O)c1ccc(CNc2ncc(C(=O)c3ccccc3)cn2)cc1 [Example 106]
Reply: 387

---

Molecular target: UniProtKB O95497
Experiment: Human Vanin-1 Enzyme Assay 3
Format: biochemical
Conditions: 2 nM human vanin-1, 10 uM substrate, 15 min
experimental-endpoint: pIC50
In plain terms, pIC50 is the concentration in mol/L turned into minus its base-10 logarithm.

>>> measurement("COc1ccc(C(=O)c2cnc(NCc3ccc(OC(F)(F)F)cc3)nc2)cc1")
6.21
>>> measurement("CS(=O)(=O)c1cccc(C(=O)c2cnc(NCc3ccc(F)cc3)nc2)c1")
6.38

Task item: Look up pIC50: "O=C(c1cnc(NCc2ccc(OC(F)(F)F)cc2)nc1)c1cccc(C(F)(F)F)c1"
Reply: 6.88

---

# maps each entry to its IC50
Molecular target: human vanin-1 (Homo sapiens (Human), UniProt O95497)
Sequence (O95497 22-491): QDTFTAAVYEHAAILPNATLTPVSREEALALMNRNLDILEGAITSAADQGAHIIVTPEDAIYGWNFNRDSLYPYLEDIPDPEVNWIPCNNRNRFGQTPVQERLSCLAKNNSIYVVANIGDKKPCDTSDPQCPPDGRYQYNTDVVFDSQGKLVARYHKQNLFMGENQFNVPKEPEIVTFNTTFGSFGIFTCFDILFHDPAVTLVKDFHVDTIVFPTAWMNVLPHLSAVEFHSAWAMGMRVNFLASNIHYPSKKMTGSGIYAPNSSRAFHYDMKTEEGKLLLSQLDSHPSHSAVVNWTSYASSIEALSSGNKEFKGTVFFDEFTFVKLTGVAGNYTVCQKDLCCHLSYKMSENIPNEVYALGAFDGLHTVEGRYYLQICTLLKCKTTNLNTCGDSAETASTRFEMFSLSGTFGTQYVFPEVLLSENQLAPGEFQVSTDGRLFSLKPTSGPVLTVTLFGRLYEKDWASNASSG
Assay: Human Vanin-1 Enzyme Assay 1
Type: biochemical
Conditions: 25 pM human vanin-1, 50 uM pantetheine 7-amino-4-trifluoromethylcoumarin, 30 min preincubation, 60 min
Just the number please, in nM, no unit attached.

Check out these entries, answers already filled in.
>>> measurement("CC(C)(Nc1ncc(C(=O)c2cccc(C(F)(F)F)c2)cn1)c1ccccc1")
32.3
>>> measurement("NC(=O)c1cccc(C(=O)c2cnc(NC3(c4cncnc4)CC3)nc2)c1")
25.6
>>> measurement("N#Cc1cccc(C(=O)c2cnc(NC3(c4cnccn4)CC3)nc2)c1")
3.4

Task item: Look up IC50: "N#Cc1cccc(C(=O)c2cnc(NC3(c4ccc(O)nc4)CC3)nc2)c1"
Reply: 307

---

Target: human vanin-1 (Homo sapiens (Human), UniProt O95497)
Experiment: Human Vanin-1 Enzyme Assay 1
Type: biochemical
Conditions: 25 pM human vanin-1, 50 uM pantetheine 7-amino-4-trifluoromethylcoumarin, 30 min preincubation, 60 min
# maps each entry to its pIC50
In plain terms, pIC50 is the concentration in mol/L turned into minus its base-10 logarithm.

Check out these entries, answers already filled in.
>>> measurement("NC(=O)c1cccc(C(=O)c2cnc(NC3(c4cnccn4)CC3)nc2)c1")
7.25
>>> measurement("O=C(O)Cc1cccc(C(=O)c2cnc(NC3(c4cncnc4)CC3)nc2)c1")
7.62
>>> measurement("O=C(c1ccccc1)c1cnc(NCc2cccnc2)nc1")
7.27
>>> measurement("Cc1cccc(C(=O)c2cnc(NCc3ccncc3)nc2)c1")
6.33
>>> measurement("Cc1ccc(C(=O)c2cnc(NCc3cncnc3)nc2)cc1C#N")
6.90
>>> measurement("NC(=O)c1cccc(CNc2ncc(C(=O)c3cccc(Cl)c3)cn2)c1")
6.66

Task item: Look up pIC50: "N#Cc1cccc(C(=O)c2cnc(NC3(c4ccc(C(N)=O)nc4)CC3)nc2)c1"
Reply: 7.11
